FYI, the data here is from PubChem BioAssay (Tox21).

- PROTOCOL DETAILS: qHTS assay to identify small molecule that activate the aryl hydrocarbon receptor (AhR) signaling pathway - cell viability counter screen (AID 743086); further: nearly all actives have a fitted effect of over 45% in size
- EXPERIMENTAL CONTEXT: HepG2-AhR-luc viability, CellTiter-Fluor, 24 h; series mostly up to 70.3 µM
Records with an inconclusive call do not appear. Calls of active or inactive are those of the source. The call rests on the fitted dose curve; in most records, active means well fitted cell-killing curve with a large enough effect in the repeat runs; inconclusive means weak or mixed curves, or effect the other way; inactive means flat fitted curve, though single readings scatter.
// classify into t for active, f for inactive

For orientation, consider the following solved cases.
COMPOUND	CLASSIFICATION
Cc1cccc(O)c1C	f
COc1nc(C)nc(Cl)c1NC1=NCCN1	f
NC(=Nc1ccccc1)Nc1ccccc1	t
NC(Cc1ccc(Cl)cc1)C(=O)O (stereo not given)	f
NCCCCCC(=O)O	f

# input Which outcome was assigned to "c1ccc2c(c1)-c1cccc3c1c-2cc1ccccc13" in this test?
# output f

# input Called result for C=C(C)C1CC=C(C)C(OC(C)=O)C1 (stereo not given)
# output f

# input For this compound, state the assay outcome: "Nc1nc(=S)c2[nH]cnc2[nH]1"
# output f

# input # lookup: test call for "Cc1occc(=O)c1OC(=O)C(C)C"
# output f

# input Write down the call the test reported for this compound. Item: "CC(=O)OCC1=C(C(=O)O)N2C(=O)[C@@H](NC(=O)Cc3cccs3)[C@H]2SC1"
# output f

# input Could you kindly confirm the outcome this assay logged for BrC1CCC(Br)C(Br)CCC(Br)C(Br)CCC1Br (stereo not given) ?
# output f

# input Tell me the recorded outcome of this test for "COC(c1ccccc1)(c1ccccc1)[C@H](Oc1nc(C)cc(C)n1)C(=O)O" .
# output f

# input State the result this test recorded for CC1COc2c(N3CCN(C)CC3)c(F)cc3c(=O)c(C(=O)O)cn1c23 (stereo not given) .
# output f

# input Hi, sorry to bother you, what did the test record for CCCCCCC(O)CCCCCCCCCCC(=O)O (stereo not given) ?
# output f

# input Check the results log: what was the call for "C=CC(=O)OCCCCCCCC" ?
# output f

* * *

- PROTOCOL DETAILS: qHTS assay to identify small molecule antagonists of the thyroid receptor (TR) signaling pathway (AID 743065); further: nearly all actives have a fitted effect of over 55% in size; further: potency means the concentration at half of the fitted maximal effect
- EXPERIMENTAL CONTEXT: GH3.TRE-Luc, T3-stimulated luciferase inhibition, 23.5 h; series mostly up to 70.3 µM
Records with an inconclusive call do not appear. The source made the active and inactive calls. The call rests on the fitted dose curve; in most records, active means well fitted inhibition curve with a large enough effect in the repeat runs; inconclusive means weak or mixed curves; inactive means no such curve, though single readings can be large or run the other way.
OBSERVED PROPERTY: Potency

COMPOUND	Potency
CN1C(=O)c2ccc([N+](=O)[O-])cc2C1=O	inactive
CCCNC(C)C(=O)Nc1ccccc1C (stereo not drawn)	inactive
O=C(OCc1ccccc1)c1ccc(O)cc1	inactive
Cc1ccnc2c1NC(=O)c1cccnc1N2C1CC1	inactive
CC1=C(C=O)C(C)(C)CC=C1	inactive
C1COC(NC(C2CC2)C2CC2)=N1	29.8 µM (active)
CC(C)(C)NCC(O)c1cc(O)cc(O)c1 (stereo not drawn)	inactive
CCCOC(=O)c1cc(O)c(O)c(O)c1	inactive

Dear reader, for each entry below, please note its Potency.
1. NC(Cc1ccc(Cl)cc1)C(=O)O (stereo not drawn)
2. CC(=O)OCC1=C(C(=O)O)N2C(=O)[C@@H](NC(=O)Cc3cccs3)[C@H]2SC1
3. CCCCN(CCO)CCCC
4. CCc1ccc(C(c2ccc(CC)cc2)C(Cl)Cl)cc1
5. CC(C(O)c1ccc(O)cc1)N1CCC(Cc2ccccc2)CC1 (stereo not drawn)

# output
1: inactive; 2: inactive; 3: inactive; 4: inactive; 5: 23.7 µM (active)

* * *

- PROTOCOL DETAILS: qHTS RealTime-Glo MT Cell Viability Assay in HepG2 cells - 24 hour (AID 1224867); further: nearly all actives have a fitted effect of over 50% in size
- EXPERIMENTAL CONTEXT: RealTime-Glo luminescence; series mostly up to 76.8 µM
Inconclusive results are not listed. The source made the active and inactive calls. Calls follow the shape of the dose curve; as a rule, active = well fitted cell-killing curve with a large enough effect in the repeat runs; inconclusive = weak or mixed curves; inactive = flat fitted curve, though single readings scatter.
Answer with one of the outcomes given here: active, inactive

Example entries begin here.
COMPOUND	CLASSIFICATION
Cc1cccc([N+](=O)[O-])c1C(=O)O	inactive
COc1cc(C(=S)N2CCOCC2)ccc1O	inactive
Oc1c(Cl)cc(Cl)c(Cl)c1Cc1c(O)c(Cl)cc(Cl)c1Cl	inactive
CC[C@@H](N)CO	inactive
CCn1cc(C(=O)O)c(=O)c2cc(F)c(N3CCNC(C)C3)c(F)c21 (stereo unspecified)	inactive

Next:
# input Outcome logged for O=c1n(CC2CO2)c(=O)n(CC2CO2)c(=O)n1CC1CO1 (stereo unspecified) in this assay:
# output inactive

* * *

- PROTOCOL DETAILS: qHTS assay for small molecule disruptors of the mitochondrial membrane potential (AID 720635)
- EXPERIMENTAL CONTEXT: HepG2 mitochondrial membrane potential, Mito-MPS dye ratio; series mostly up to 83.2 µM
Records with an inconclusive call do not appear. Activity calls are given as the source filed them. Calls follow the shape of the dose curve; as a rule, active = well fitted inhibition curve with a large enough effect in the signal ratio in the repeat runs; inconclusive = weak or mixed curves, or effect the other way; inactive = flat fitted curve, though single readings scatter; the % refers to the signal ratio.
Please state which outcome applies, choosing from yes = active, no = inactive

COMPOUND	CLASSIFICATION
Nc1nc2ccccc2[nH]1	no

# input // param item: CCn1cc(C(=O)O)c(=O)c2cc(F)c(N3CCNC(C)C3)c(F)c21 (centres undefined) ; yields the recorded call
# output no

# input Record request — test call for "O=C(O)c1cc(Cl)cc(Cl)c1"
# output no

# input Please state the recorded outcome for this compound: "COC(c1ccccc1)(c1ccccc1)[C@H](Oc1nc(C)cc(C)n1)C(=O)O"
# output no

# input Record request — test call for C=C(C)C1CC=C(C)C(OC(C)=O)C1 (centres undefined)
# output no

# input What call does the record list for "O=Nc1ccc(Nc2ccccc2)cc1" ?
# output yes

* * *

- PROTOCOL DETAILS: A CellTox Green Cytotoxicity Assay to monitor cytotoxicity in HEK293 cells - 16 hour (AID 1224888); further: nearly all actives have a fitted effect of over 35% in size
- EXPERIMENTAL CONTEXT: CellTox Green fluorescence; series mostly up to 76.8 µM
Inconclusive results are not listed. Calls of active or inactive are those of the source. Calls follow the shape of the dose curve; as a rule, active = well fitted activation curve with a large enough effect in the repeat runs; inconclusive = weak or mixed curves; inactive = flat fitted curve, though single readings scatter.

STRUCTURE NOTATION	outcome
C=C(C)C(=O)O	inactive
CC(C)(c1ccccc1)c1ccc(Nc2ccc(C(C)(C)c3ccccc3)cc2)cc1	inactive
CC(=O)OCCOCCOCCOC(C)=O	inactive

* * *

- PROTOCOL DETAILS: Caspase-3/7 induction in HepG2 cells by small molecules, qHTS assay (AID 1346978); further: nearly all actives have a fitted effect of over 15% in size
- EXPERIMENTAL CONTEXT: HepG2 caspase-3/7 activation, Caspase-Glo luminescence, 17 h; series mostly up to 92.4 µM
Results filed as inconclusive are left out. The source made the active and inactive calls. Calls follow the shape of the dose curve; as a rule, active = well fitted activation curve with a large enough effect in the repeat runs; inconclusive = weak or mixed curves; inactive = flat fitted curve, though single readings scatter.
# output must be one of active, inactive

Worked set:
COMPOUND	CLASSIFICATION
CO[Si](OC)(OC)c1ccccc1	inactive
COc1ccc(CCN2CCC(Nc3nc4ccccc4n3Cc3ccc(F)cc3)CC2)cc1	active
O	inactive
COc1nc(C)nc(Cl)c1NC1=NCCN1	inactive
Nc1cc(S(=O)(=O)O)cc2cc(S(=O)(=O)O)cc(O)c12	inactive

# input Can you look up the reported call for "O=S(=O)(O)c1ccc2nc(-c3ccccc3)[nH]c2c1" for me?
# output inactive

# input Can you look up the reported call for "Cc1cccc(O)c1C" for me?
# output inactive

# input State the result this test recorded for "CCCC(=O)c1ccccc1" .
# output inactive

# input # fetch the recorded call for "NC12CC3CC(CC(C3)C1)C2" here
# output inactive

# input State the result this test recorded for "O=C(O)CP(=O)(O)O" .
# output inactive

# input What is the recorded call for this compound in the test? "O=C(O)c1cc(Cl)cc(Cl)c1"
# output inactive

# input What did the test return for "Nc1nc(=S)c2[nH]cnc2[nH]1" ?
# output inactive

# input For "O=C(O)c1cccc(C(=O)O)c1" , which call appears in the assay record?
# output inactive

# input What did the test return for "CCC(CO)(CO)COCC(CC)(CO)CO" ?
# output inactive

# input # outcome recorded in this test, key = "CCCCCC(=O)O[C@]1(C(C)=O)CC[C@H]2[C@@H]3CCC4=CC(=O)CC[C@]4(C)[C@H]3CC[C@@]21C"
# output inactive

# input For c1ccc2c(c1)CCCC2C1=NCCN1 (configuration not stated) , which call appears in the assay record?
# output inactive

# input Given "C1COC(NC(C2CC2)C2CC2)=N1" , state the outcome it received in this test.
# output inactive

# input Please share the test call associated with "CC[C@H]1CN2CCc3cc(OC)c(OC)cc3[C@@H]2C[C@@H]1C[C@H]1NCCc2cc(OC)c(OC)cc21" .
# output inactive

# input Please share the test call associated with "CC(=O)CC(=O)Nc1ccc2[nH]c(=O)[nH]c2c1" .
# output inactive

# input Hello, I am checking results. What call was entered for CCCNC(C)C(=O)Nc1ccccc1C (configuration not stated) ?
# output inactive

# input Could you kindly confirm the outcome this assay logged for CC(C)(C)NCC(O)c1cc(O)cc(O)c1 (configuration not stated) ?
# output inactive
